Values from PubChem BioAssay

assay_method_text: ovarian cancer cell viability with rucaparib, profiling panel, oncology-focused library, rucaparib conditional (AID 1508598)
run_conditions: patient-derived ovarian cancer cells, CellTiter-Glo viability, 144 h; at 0.313 µM; OCI-P5x cells; without rucaparib
Activity calls are given as the source filed them.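 The calls were made as follows: active = normalized viability below 100% at a tested concentration; inactive = the rest.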
Use one of these outcomes when replying: t for active, f for inactive

Solved cases (5 shown):
INSERT INTO results (structure_smiles_string, discrete_label) VALUES
  ('CN(C)c1nc(N(C)C)nc(N(C)C)n1', 't'),
  ('Cc1ccc(Nc2nccc(N(C)c3ccc4c(C)n(C)nc4c3)n2)cc1S(N)(=O)=O', 't'),
  ('O=C(CCc1ccc(O)cc1)c1c(O)cc(O)cc1O', 'f'),
  ('CC/C(=C(\c1ccccc1)c1ccc(OCCN(C)C)cc1)c1ccccc1', 'f'),
  ('C#Cc1cccc(Nc2ncnc3cc(OCCOC)c(OCCOC)cc23)c1', 't');

Can you look up the reported call for COc1nc(N)nc2c1ncn2[C@@H]1O[C@H](CO)[C@@H](O)[C@@H]1O for me?
t

Can you look up the reported call for CC(C)n1c(/C=C/[C@@H](O)C[C@@H](O)CC(=O)O)c(-c2ccc(F)cc2)c2ccccc21 for me?
t

Can you look up the reported call for Nc1nc(Cl)nc2c1ncn2[C@@H]1O[C@H](CO)[C@@H](O)[C@@H]1F for me?
t

Can you look up the reported call for O=C(O[C@@H]1Cc2c(O)cc(O)cc2O[C@@H]1c1cc(O)c(O)c(O)c1)c1cc(O)c(O)c(O)c1 for me?
f

Can you look up the reported call for COc1cc2ncnc(Nc3ccc(F)c(Cl)c3)c2cc1OCCCN1CCOCC1 for me?
f

====

assay_method_text: growth inhibition of DIPG glioma cells, dose response, cell-based, JHH-DIPG-1, MIPE4.0, CellTiter-Glo, qHTS (AID 1347062);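 as to AC50: cells exposed to compound for two days before readout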
run_conditions: JHH-DIPG-1 viability, CellTiter-Glo ATP luminescence
Records with an inconclusive call do not appear. Calls of active or inactive are those of the source. No cut-off is given here; in the data, nearly all actives have AC50 up to about 27 µM.
Use one of these outcomes when replying: active, inactive

Solved cases (6 shown):
INSERT INTO measurements (compound, discrete_label) VALUES
  ('C[C@@H]1C[C@H]2[C@@H]3CCC4=CC(=O)C=C[C@]4(C)[C@@]3(Cl)[C@@H](O)C[C@]2(C)[C@@]1(OC(=O)c1ccco1)C(=O)CCl', 'active'),
  ('CCCCCCCCOc1ccccc1C(=O)Nc1ccc(C(=O)OCC[N+](C)(CC)CC)cc1', 'active'),
  ('COc1c(O)cc2c(c1O)[C@@H]1O[C@H](CO)[C@@H](O)[C@H](O)[C@H]1OC2=O', 'inactive'),
  ('C[C@H](CCC(=O)O)[C@H]1CC[C@H]2[C@@H]3[C@H](O)C[C@@H]4C[C@H](O)CC[C@]4(C)[C@H]3CC[C@]12C', 'inactive'),
  ('Cc1nc(Nc2ncc(C(=O)Nc3c(C)cccc3Cl)s2)cc(N2CCN(CCO)CC2)n1', 'active'),
  ('CCc1ccc(CCOc2ccc(CC3SC(=O)NC3=O)cc2)nc1 (configuration not stated)', 'inactive');

Can you look up the reported call for CCN(C)C(=O)Oc1cccc([C@H](C)N(C)C)c1 for me?
inactive

Can you look up the reported call for C[C@H]1[C@H](NC(=O)/C(=N/OC(C)(C)C(=O)O)c2csc(N)n2)C(=O)N1S(=O)(=O)O (stereo in doubt) for me?
inactive

Can you look up the reported call for NC(=O)c1cccnc1 for me?
inactive

Can you look up the reported call for C[C@H]1C[C@H]2[C@@H]3CCC4=CC(=O)C=C[C@]4(C)[C@@]3(F)[C@@H](O)C[C@]2(C)[C@@]1(O)C(=O)CO for me?
inactive

Can you look up the reported call for C[C@@]12C[C@@]3(O)O[C@@H](O1)[C@]1(COC(=O)c4ccccc4)[C@H]3C[C@@]12O[C@@H]1O[C@H](CO)[C@@H](O)[C@H](O)[C@H]1O for me?
inactive

====

assay_method_text: sensitizers of A549 cells to miR-34 induction, primary screen, imaging, A549 dox-inducible miR-34, nuclei and caspase counts (AID 1347080)
run_conditions: A549 miR-34 inducible, Hoechst nuclei count, 48 h; measured here: total cells without miR-34 induction
Record form. Attribute: cell count. Fill in for each entry.
One number for each entry.

Example cases with answers are listed next.
INSERT INTO assay_data (molecule, reported_result) VALUES
  ('CC(=O)NCCCS(=O)(=O)O', 9650),
  ('O=C(O)[C@H](O)[C@@H](O)[C@H](O[C@@H]1O[C@H](CO)[C@H](O)[C@H](O)[C@H]1O)[C@H](O)CO', 10600),
  ('CC(=O)OCC(=O)[C@@]1(O)CC[C@H]2[C@@H]3CCC4=CC(=O)C=C[C@]4(C)[C@@]3(F)[C@@H](O)C[C@@]21C', 5500);

Return reported cell count values for all items listed beneath this line.
1. CN(C(=O)c1c(O)c2ccccc2n(C)c1=O)c1ccccc1
2. Cc1c(C)c2c(c(C)c1O)CC[C@@](C)(CCC[C@H](C)CCC[C@H](C)CCCC(C)C)O2

1: 9070; 2: 8740

Return reported cell count values for all items listed beneath this line.
1. CC1CCCC(C)N1NC(=O)c1ccc(Cl)c(S(N)(=O)=O)c1 (configuration not stated)
2. CCOC(=O)/C=C(C)/C=C/C=C(C)/C=C/c1c(C)cc(OC)c(C)c1C

1. 8360
2. 10800

====

Record form. Attribute: red/green cell ratio (normalised). Fill in for each entry.
assay_method_text: differential killing of epithelial or mesenchymal cells, primary screen, imaging, PC-3E GFP, TEM4-18 mCherry, co-culture (AID 1345086);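 also: cells exposed to compound for 72 h before imaging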;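 as to red/green cell ratio (normalised): normalised mesenchymal count divided by normalised epithelial count so high means epithelial killing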
run_conditions: imaging cell counts, at 1 µM, actives lie on both sides, counts scaled to control wells, 1 = unselective
One number for each entry.

Example cases with answers are listed next.
INSERT INTO assay_data (compound, quantity_name, reported_result) VALUES
  ('CC(=O)Oc1cc(OC(C)=O)c2c(c1)O[C@H](c1ccc(OC(C)=O)c(OC(C)=O)c1)[C@H](OC(C)=O)C2', 'red/green cell ratio (normalised)', 0.86),
  ('COc1c(CC(=O)c2cc3c(cc2O)OC(C)(C)C(O)C3)ccc2c1C=CC(C)(C)O2 (centres undefined)', 'red/green cell ratio (normalised)', 0.66);

Return reported red/green cell ratio (normalised) values for all items listed beneath this line.
1. CC(=O)O[C@H]1CCC2(C)C3=C(CCC2C1(C)C)[C@]1(C)CCC(C(C)CCC=C(C)C)[C@@]1(C)CC3 (some centres undefined)
2. C=CC(C1=CC(=O)C(OC)=CC1=O)c1ccccc1 (centres undefined)

1. 0.97
2. 1.14

====

assay_method_text: JHH-DIPG-1 glioma cell viability, MIPE5.0 library, CellTiter-Glo luminescence, qHTS (AID 1347067);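 also: cells exposed to compound for 48 hours before readout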
run_conditions: JHH-DIPG-1 glioma viability, CellTiter-Glo ATP luminescence
Records with an inconclusive call do not appear. Activity calls are given as the source filed them. Cut-off not given; nearly all actives show AC50 up to about 26 µM.
quantity_name: AC50

Example cases with answers are listed next.
INSERT INTO results (structure_smiles_string, quantity_name, reported_result) VALUES
  ('COc1c2occc2cc2ccc(=O)oc12', 'AC50', 'inactive'),
  ('CC(C)OC(=O)C(C)(C)Oc1ccc(C(=O)c2ccc(Cl)cc2)cc1', 'AC50', 'inactive'),
  ('CNC(=O)c1cc(Oc2ccc(NC(=O)Nc3ccc(Cl)c(C(F)(F)F)c3)cc2)ccn1', 'AC50', '4.17 µM (active)'),
  ('CN(N=O)C(=O)N[C@@H]1[C@@H](O)[C@H](O)[C@@H](CO)O[C@@H]1O', 'AC50', 'inactive'),
  ('N#Cc1c(N(CC(=O)O)CC(=O)O)sc(C(=O)O)c1CC(=O)O', 'AC50', 'inactive');

Return reported AC50 values for all items listed beneath this line.
1. NCCc1cnc[nH]1
2. Cc1ccc(Nc2nccc(N(C)c3ccc4c(C)n(C)nc4c3)n2)cc1S(N)(=O)=O
3. Nc1cc(C(Cl)=C(Cl)Cl)c(S(N)(=O)=O)cc1S(N)(=O)=O
4. COC(=O)[C@H](c1ccccc1Cl)N1CCc2sccc2C1
5. C[C@H]1COc2c(N3CCN(C)CC3)c(F)cc3c(=O)c(C(=O)O)cn1c23
6. Cc1cc(=O)oc2cc(O)ccc12

1: inactive; 2: 18.6 µM (active); 3: inactive; 4: inactive; 5: inactive; 6: inactive

====

assay_method_text: differential killing of epithelial or mesenchymal cells, primary screen, imaging, PC-3E GFP, TEM4-18 mCherry, co-culture (AID 1345086);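 also: cells exposed to compound for 72 h before imaging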
run_conditions: imaging cell counts, measured here: epithelial PC-3E GFP cell survival, at 1 µM
Record form. Attribute: normalised cell number. Fill in for each entry.
Numbers only.

Example cases with answers are listed next.
INSERT INTO assay_data (structure_smiles_string, quantity_name, reported_result) VALUES
  ('COc1ccc(C(C)=O)c(O)c1', 'normalised cell number', 0.95),
  ('COc1cc(O)c(C(=O)c2ccccc2)cc1O', 'normalised cell number', 1.31);

I would be grateful if you could share the reported normalised cell number for CC(=O)Nc1ncc([N+](=O)[O-])s1 .
0.93
